Target: human Mfn2 (Homo sapiens)
Construct: expressed in transfected cells; host or cells: HEK 293T
Sequence (O95140 whole entry): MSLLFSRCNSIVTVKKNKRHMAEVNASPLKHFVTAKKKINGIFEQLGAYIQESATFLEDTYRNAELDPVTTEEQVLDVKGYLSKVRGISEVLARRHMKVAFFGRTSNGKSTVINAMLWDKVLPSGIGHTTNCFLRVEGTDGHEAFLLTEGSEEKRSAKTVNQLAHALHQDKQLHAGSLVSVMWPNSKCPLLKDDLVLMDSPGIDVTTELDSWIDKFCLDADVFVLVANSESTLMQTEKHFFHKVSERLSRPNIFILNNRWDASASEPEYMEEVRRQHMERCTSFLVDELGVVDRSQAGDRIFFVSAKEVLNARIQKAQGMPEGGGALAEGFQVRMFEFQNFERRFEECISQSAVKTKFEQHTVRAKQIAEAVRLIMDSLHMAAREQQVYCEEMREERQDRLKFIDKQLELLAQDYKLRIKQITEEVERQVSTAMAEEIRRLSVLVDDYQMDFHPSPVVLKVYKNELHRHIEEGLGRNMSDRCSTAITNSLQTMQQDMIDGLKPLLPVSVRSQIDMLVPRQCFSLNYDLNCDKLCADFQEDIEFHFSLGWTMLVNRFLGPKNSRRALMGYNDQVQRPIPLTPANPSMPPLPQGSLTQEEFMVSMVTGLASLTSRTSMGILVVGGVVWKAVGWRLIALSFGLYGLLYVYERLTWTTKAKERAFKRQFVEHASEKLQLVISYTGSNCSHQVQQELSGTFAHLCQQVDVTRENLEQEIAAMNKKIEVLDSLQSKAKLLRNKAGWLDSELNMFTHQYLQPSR
Assay: FRET-based Mfn2 biosensor (wild type) in HEK 293T cells
Format: cell-based
Set-up: concentration or dose not given beside the values
Conditions: WT FRET-based Mfn2 biosensor, 2 h
% of FRET reduction values by entry
Report the value in % with no unit label.

> print(dat)
                                   molecule  assay.result
1  CC(Sc1nnc(C2CC2)n1-c1ccccc1)C(=O)Nc1sc2c(c1C#N)CCCCC2 (stereo not drawn) [MASM28]           8.0
2  CC(Sc1nc(C2CC2)nc2c1c(=O)[nH]c(=O)n2C1CC1)C(=O)NCC1CCCCC1 (stereo not drawn) [MASM8]           1.2
3  CC(Sc1nnc(-c2ccco2)n1-c1ccccc1)C(=O)Nc1sc2c(c1C(N)=O)CCC2 (stereo not drawn) [MASM22]          31.7
4  CC(Sc1nnc(Cc2cccs2)n1C1CC1)C(=O)Nc1sc2c(c1C(N)=O)CCC2 (stereo not drawn) [MASM31]          30.7
5  Cc1ccccc1-n1c(SCC(=O)Nc2sc3c(c2C(N)=O)CCC3)nnc1-c1ccncc1 [MASM27]          30.0

What value of % of FRET reduction has been recorded for this entry: Cc1cc(NC(=O)C(C)SCC(=O)Nc2ccc(NC(C)c3ccccc3)cc2)no1 (stereo not drawn) [MASM1]
−5.3

Follow-up entry: CC(Sc1nnc(-c2cccs2)n1-c1ccccc1)C(=O)Nc1sc2c(c1C(N)=O)CCC2 (stereo not drawn) [MASM36]
11.1

Follow-up entry: CCn1c(Cc2ccccc2)nnc1SC(C)C(=O)Nc1sc2c(c1C(N)=O)CCC2 (stereo not drawn) [MASM38]
9.9

Follow-up entry: CC(Sc1nccn1Cc1ccccc1)C(=O)Nc1sc2c(c1C(N)=O)CCC2 (stereo not drawn) [MASM37]
21.0

Follow-up entry: CCC(SC1Cc2cc(OC)c(OC)cc2-c2nc(CCn3nc(C)cc3C)nn21)C(=O)Nc1ccc(F)cc1 (stereo not drawn) [MASM6]
−0.7

Follow-up entry: CCC(C)NC(=O)c1ccccc1NC(=O)C(C)Sc1ccc(C)cc1 (stereo not drawn) [MASM14]
−10

Follow-up entry: O=C(NCCSCc1ccccc1)C1CCCCO1 (stereo not drawn) [MASM16]
−11.2

Follow-up entry: Cc1nnc(SCC(=O)Nc2sc3c(c2C(N)=O)CCC3)n1-c1ccccc1 [MASM26]
37.0

---

% of FRET reduction values by entry
Molecular target: human Mfn2 (Homo sapiens)
Construct: expressed in transfected cells; host or cells: HEK 293T
Test: FRET-based Mfn2 biosensor (wild type) in HEK 293T cells
Type: cell-based
Set-up: concentration or dose not given beside the values
Conditions: WT FRET-based Mfn2 biosensor, 2 h
Report the value in % with no unit label.

Example entries and their recorded answers appear below.
> print(dat)
                                   compound  endpoint.unit  assay.result
1  COc1ccc2c(c1)C1(SCCN1C(=O)c1ccccc1C)C(=O)N2Cc1cccc(C(F)(F)F)c1 (stereo not drawn)              %           1.1
2  Cc1ccc(C(=O)C(C)Sc2nnc3c(=O)n(-c4ccc(Br)cc4)ccn23)cc1C (stereo not drawn)              %          −0.5
3  S=C(NCCSCc1ccco1)NC1CC2CCC1C2 (stereo not drawn)              %          −3.6
4  CC(Sc1nnc(Cc2ccccc2)n1C)C(=O)Nc1sc2c(c1C(N)=O)CCC2 (stereo not drawn)              %          25.9
5  NC(=O)c1c(NC(=O)CSc2nnc(C3CC3)n2Cc2ccccc2)sc2c1CCC2              %          14.8
6  CC1CCc2c(sc(NC(=O)CSc3nnc(C4CC4)n3-c3ccccc3)c2C(N)=O)C1 (stereo not drawn)              %          18.9

What value of % of FRET reduction has been recorded for this entry: CC(Sc1nccn1-c1cccc(F)c1)C(=O)Nc1sc2c(c1C(N)=O)CCC2 (stereo not drawn)
10.2

Follow-up entry: Cc1ccc(CSCCNC(=O)C2CCN(c3ccc4nnc(C(F)(F)F)n4n3)CC2)cc1
−14.1

Follow-up entry: CC(Sc1nnc(-c2ccco2)n1C1CCCCC1)C(=O)Nc1sc2c(c1C(N)=O)CCC2 (stereo not drawn)
9.9
